- Read-out: Nuclear factor erythroid 2-related factor 2 (Homo sapiens) (UniProt Q16236)
- Sequence (Q16236 whole entry, looked up): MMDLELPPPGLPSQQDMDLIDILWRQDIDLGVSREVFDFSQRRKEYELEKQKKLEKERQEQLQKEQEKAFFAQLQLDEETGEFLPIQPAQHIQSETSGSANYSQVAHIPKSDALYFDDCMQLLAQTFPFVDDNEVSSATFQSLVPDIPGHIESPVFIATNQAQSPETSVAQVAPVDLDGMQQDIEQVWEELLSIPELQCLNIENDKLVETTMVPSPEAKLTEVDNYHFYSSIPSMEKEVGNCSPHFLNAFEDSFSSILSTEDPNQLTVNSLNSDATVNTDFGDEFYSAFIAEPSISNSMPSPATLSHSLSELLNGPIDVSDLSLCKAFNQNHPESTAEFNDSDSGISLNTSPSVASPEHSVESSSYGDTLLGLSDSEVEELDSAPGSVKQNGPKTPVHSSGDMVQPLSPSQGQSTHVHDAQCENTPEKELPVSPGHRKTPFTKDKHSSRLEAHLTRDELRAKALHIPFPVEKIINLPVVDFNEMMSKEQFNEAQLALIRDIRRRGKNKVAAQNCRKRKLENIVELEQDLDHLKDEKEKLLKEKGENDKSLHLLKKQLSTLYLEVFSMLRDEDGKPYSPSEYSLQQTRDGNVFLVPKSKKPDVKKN
- procedure-text: LTEA_HepaRG_NFE2L2: Life Technologies and Expression Analysis (LTEA) Assay for Nuclear factor erythroid 2-related factor 2 (NFE2L2) Transcription Factor using HepaRG (AID 2283527);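 note: TaqMan qRT-PCR transcript level normalised to ACTB GAPDH and POLR2A housekeeping genes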
- reported-conditions: mRNA level, 48 h; actives raise or lower the signal
Calls of active or inactive are those of the source. Rule for the calls: active = hit-call score of the fitted dose curve at least 0.9, where 1 is the maximum; inactive = score below 0.9.
// allowed return values: YES for active, NO for inactive

compound=CC1=CC(=O)CC(C)(C)C1 class=NO
compound=CCOCCO class=NO
compound=CCCCCCCCCCCCCCCO class=NO
compound=CC(C)(O)c1coc(S(=O)(=O)NC(=O)Nc2c3c(cc4c2CCC4)CCC3)c1 class=NO
compound=C=CCCCCCCCCC(=O)O class=NO
compound=CC(C)c1cccc(C(C)C)c1N1C(=O)c2ccc(O)cc2C1=O class=NO
compound=COCCOCCOCCOC class=NO
compound=CC(C)CCO class=NO

GET /call?item= `CC(C)CCCCCCCOC(=O)CCCCC(=O)OCCCCCCCC(C)C` returns the recorded outcome of this test. NO

Could you kindly confirm the outcome this assay logged for `CCOc1cccc(-n2cc(C(=O)N3CCN(c4cc(C(=O)O)c5ccccc5c4)CC3)nc2-c2ccc(C)cc2)c1` ? NO

----------
- Read-out: ABC Transporter (ABCC3), ABCC3 (gene 8714)
- procedure-text: LTEA_HepaRG_ABCC3: Life Technologies and Expression Analysis (LTEA) Assay for ABC Transporter (ABCC3) using HepaRG (AID 2283462)
- reported-conditions: mRNA level, 48 h; actives raise or lower the signal
Calls of active or inactive are those of the source. How the source made its calls: active means hit-call score of the fitted dose curve at least 0.9, where 1 is the maximum; inactive means score below 0.9.
Choose the fitting class; nothing outside active, inactive is accepted.

molecule=CC[C@H](C)C(=O)O[C@H]1C[C@@H](C)C=C2C=C[C@H](C)[C@H](CC[C@@H]3C[C@@H](O)CC(=O)O3)[C@H]21 class=inactive
molecule=C[C@](N)(Cc1ccc(O)c(O)c1)C(=O)O class=inactive
molecule="CCOC(=O)COc1ccc2c(c1)CC(NCC(O)c1cccc(Cl)c1)CC2 (stereo not drawn)" class=inactive
molecule=CC(C)CCCCCCOC(=O)c1ccc(C(=O)OCCCCCCC(C)C)c(C(=O)OCCCCCCC(C)C)c1 class=inactive

What classification did `CC(C)=CCC/C(C)=C/CO` end up with in this test? inactive

Fill in: this test's call for CCCCC(CC)COC(=O)c1ccc(C(=O)OCC(CC)CCCC)cc1 (stereo not drawn) is ___ inactive

Hi team, can someone confirm the assay call for `CC(=O)OCCC(C)C` ? inactive

Which result was noted for this molecule in the test: `CCC(C)(C)C(=O)O[C@H]1C[C@@H](C)C=C2C=C[C@H](C)[C@H](CC[C@@H]3C[C@@H](O)CC(=O)O3)[C@H]21` inactive

Answer briefly: the call reported for `COCCOCCOCCOC` in this assay. inactive

Please indicate how the test categorized CCOC(=O)c1ccc(C2CCC(NC[C@H](O)COc3ccc(O)c(NS(C)(=O)=O)c3)CC2)cc1 (stereo partly drawn) . inactive

Hello, I am checking results. What call was entered for `Nc1nc2ncc(CNc3ccc(C(=O)N[C@@H](CCC(=O)O)C(=O)O)cc3)nc2c(=O)[nH]1` ? inactive

Please state the recorded outcome for this molecule: `Nc1ccc(Nc2ccccc2)cc1` inactive

----------
- Read-out: Glutamate-cysteine ligase regulatory (GCLM), GCLM (gene 2730)
- procedure-text: LTEA_HepaRG_GCLM: Life Technologies and Expression Analysis (LTEA) Assay for Glutamate-cysteine ligase regulatory (GCLM) using HepaRG (AID 2283500)
- reported-conditions: mRNA level, 48 h; actives raise or lower the signal
Calls of active or inactive are those of the source. How the source made its calls: active means hit-call score of the fitted dose curve at least 0.9, where 1 is the maximum; inactive means score below 0.9.
Outcomes you can answer with include only these: Yes for active, No for inactive

Record excerpt, results attached:
compound=CC(C)CCCCCCOC(=O)c1ccc(C(=O)OCCCCCCC(C)C)c(C(=O)OCCCCCCC(C)C)c1 class=No
compound="Fc1ccccc1[C@@H](F)COC1CCC(Nc2ncnc3[nH]ncc23)CC1 (stereo partly specified)" class=No
compound="O=C1CCC(N2C(=O)c3ccccc3C2=O)C(=O)N1 (stereo unspecified)" class=No

Please share the test call associated with `COCCOCCOCCOC` . No

Could you kindly confirm the outcome this assay logged for `CCCCCCc1ccc(O)cc1O` ? No

What did the test return for `CCCN(C1CCN(C(=O)C2CCNCC2)CC1)[C@@H]1CCc2ccc(OC)cc2C1` ? No

How was `CCNc1ccccc1` classified in this test? No

What is the recorded call for this compound in the test? `CC1(C)C(=O)N(Br)C(=O)N1Br` No

For `O=C(O)CCN(C1(C(=O)NO)CCCC1)S(=O)(=O)c1ccc(Oc2ccc(F)cc2)cc1` , what call appears in the results of this test? No
